system: SNB-75 CNS; experiment: NCI-60 one-dose screen, 48 h (100 = growth as untreated, 0 = no growth, -100 = all killed); conditions: 10 µM unless noted
Compounds without any hit were thinned out: in the full panel of roughly 83,000, 20% have a hit.
Rule: measured growth below 80% gets label 1; anything equal to or greater than 80% gets label 0.

In [3]: df
Out[3]:
                                    compound  target_of_assay  assigned_class
 0  CNC(C)[C@H]1CCC2C3CCC4C[C@@H](N(C)C(=O)c5ccccc5)CC[C@]4(C)C3CC[C@@]21C (stereo not given in full)       SNB-75 CNS         label 1
 1  COc1ccc(CNC(=O)[C@H](O)[C@@H](N)Cc2ccccc2)cc1       SNB-75 CNS         label 0
 2  N/C(=N\c1nc2ccccc2s1)NC(=O)Nc1cccc2ccccc12       SNB-75 CNS         label 1
 3  Cc1ccc2nc(NC(=O)CSc3nc(Cl)c(C#N)c(-c4ccccc4)n3)sc2c1       SNB-75 CNS         label 0
 4  COc1ccc(-c2nn(C(=O)c3cc(OC)c(OC)c(OC)c3)c3cc(N)ccc23)cc1       SNB-75 CNS         label 1
 5        Cc1nc2nc(SCC(=O)O)[nH]c2c(=O)[nH]1       SNB-75 CNS         label 0
 6  O=C(CCN1C(=O)/C(=C/c2ccc(O)cc2)SC1=S)Nc1ccccc1       SNB-75 CNS         label 0
 7  C=CCNc1ccc2c3c(cccc13)C(=O)N(N1C(=O)c3cccc4cccc(c34)C1=O)C2=O       SNB-75 CNS         label 0
 8  Cc1nn(-c2ccccc2)c(-n2ccnc2)c1/C=N/Nc1nc(-c2ccc(F)cc2)cs1       SNB-75 CNS         label 1
 9  COc1ccc(/C=N/Nc2cc(=O)[nH]c3ccc(C)cc23)cc1       SNB-75 CNS         label 0
10  Cc1nc2ccccc2c(/C=C/c2ccc(Cl)cc2)c1C(=O)/C=C/c1ccc(C(F)(F)F)cc1       SNB-75 CNS         label 1
11  COc1ccc(-n2c(N)c(-c3nc4ccccc4[nH]3)cc(C#N)c2=O)cc1       SNB-75 CNS         label 1
12  Cc1nc2ccccc2c(/C=C/c2ccccc2)c1C(=O)/C=C/c1ccc(C(F)(F)F)cc1       SNB-75 CNS         label 1
13  CN1C(=O)CNC(=O)[C@H](NC(=O)c2nc3ccccc3cc2O)CSSC[C@H]1C(=O)NCCc1nc2ccccc2cc1O       SNB-75 CNS         label 0
14           CNCCCC12CCC(c3ccccc31)c1ccccc12       SNB-75 CNS         label 1
15       O=C(/C=C/c1sc(Cl)nc1Cl)c1ccc(Br)cc1       SNB-75 CNS         label 0
16               CCCCOc1ccc(/C=N/NC(N)=S)cc1       SNB-75 CNS         label 1
17  COc1ccccc1/C=C1\Oc2cc(OCCN3CCC(Cc4ccccc4)CC3)ccc2C1=O       SNB-75 CNS         label 0
